Target: d-enCas12a-Ultra (Acidaminococcus sp., UniProt U2UMQ6 1-1307, E174R;S542R;K548R;M537R;F870L;D908A;E993A;D1235A)
Assay: Spec-seq (native PAGE EMSA with sequencing of bound and unbound); 25 mM Tris-HCl pH 7.4, 150 mM KCl, 5 mM MgCl2, 10% glycerol, 1 mM DTT, 40 ng/uL salmon sperm DNA; 400 nM Cas12a, 480 nM crRNA, 50 nM library, 37 C 1 h; native PAGE at room temperature; high values mean tight binding;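 also: relative affinity from the bound to unbound sequence frequency ratio in Spec-seq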
Details: protein: recombinant
Quick reference: binding signal of the listed items.
metric name: binding signal (lnKA)

• TCCC (dsDNA) DNA 1: GCTATCTAGTGCTCAGTACGCACTGTCCCAGGAAACTTCTGGCAGGACCAGGTCATGAGATCGGAAGAGCACACGTCTGAACTCCAGTCA DNA 2: TGACTGGAGTTCAGACGTGTGCTCTTCCGATCTCATGACCTGGTCCTGCCAGAAGTTTCCTGGGACAGTGCGTACTGAGCACTAGATAGC RNA: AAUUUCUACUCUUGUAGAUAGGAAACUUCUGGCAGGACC = -0.245
• CCTG (dsDNA) DNA 1: GCTATCTAGTGCTCAGTACGCACTGCCTGAGGAAACTTCTGGCAGGACCAGGTCATGAGATCGGAAGAGCACACGTCTGAACTCCAGTCA DNA 2: TGACTGGAGTTCAGACGTGTGCTCTTCCGATCTCATGACCTGGTCCTGCCAGAAGTTTCCTCAGGCAGTGCGTACTGAGCACTAGATAGC RNA: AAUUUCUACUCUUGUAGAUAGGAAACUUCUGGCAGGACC = -3.13
• CAGT (dsDNA) DNA 1: GCTATCTAGTGCTCAGTACGCACTGCAGTAGGAAACTTCTGGCAGGACCAGGTCATGAGATCGGAAGAGCACACGTCTGAACTCCAGTCA DNA 2: TGACTGGAGTTCAGACGTGTGCTCTTCCGATCTCATGACCTGGTCCTGCCAGAAGTTTCCTACTGCAGTGCGTACTGAGCACTAGATAGC RNA: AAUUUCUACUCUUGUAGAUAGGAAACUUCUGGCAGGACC = -3.37
• ATGT (dsDNA) DNA 1: GCTATCTAGTGCTCAGTACGCACTGATGTAGGAAACTTCTGGCAGGACCAGGTCATGAGATCGGAAGAGCACACGTCTGAACTCCAGTCA DNA 2: TGACTGGAGTTCAGACGTGTGCTCTTCCGATCTCATGACCTGGTCCTGCCAGAAGTTTCCTACATCAGTGCGTACTGAGCACTAGATAGC RNA: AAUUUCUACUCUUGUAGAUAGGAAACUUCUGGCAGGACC = -3.21
• GACT (dsDNA) DNA 1: GCTATCTAGTGCTCAGTACGCACTGGACTAGGAAACTTCTGGCAGGACCAGGTCATGAGATCGGAAGAGCACACGTCTGAACTCCAGTCA DNA 2: TGACTGGAGTTCAGACGTGTGCTCTTCCGATCTCATGACCTGGTCCTGCCAGAAGTTTCCTAGTCCAGTGCGTACTGAGCACTAGATAGC RNA: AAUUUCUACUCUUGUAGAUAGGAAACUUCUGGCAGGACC = -3.01
